Could you please report measured pIC50 for the items listed next?
molecular target: HLA-A*0201 (human), P30376; assay: competition binding assay, purified HLA, 125I probe
pIC50: −log10 of the molar value.

## Input Using the record for YLVAYQATV (modifications not checked) [HCV peptide 1013.02 (NS4 1590)] , report its pIC50.
## Output > 7.30

## Input Would you mind telling me what pIC50 value was observed for ALSTGLIHL (modifications not checked) [HCV peptide 1013.12 (NS1/E2 686)] ?
## Output > 6.30

## Input Query (binder): LLFNILGGWV (modifications not checked) [HCV peptide 1073.05 (NS4 1812)] ; field requested: pIC50
## Output > 7.30

## Input Using the record for HLHQNIVDV (modifications not checked) [HCV peptide 939.14 (NS1/E2 696)] , report its pIC50.
## Output > 6.30

## Input What pIC50 value was documented for this binder, ILSPGALVV (modifications not checked) [HCV peptide 24.0065 (NS4 1891)] ?
## Output > 6.30
